The following compounds have recorded IC50 on Tyrosine-protein phosphatase non-receptor type 1 (Homo sapiens, UniProt P18031).
Sequence (P18031 whole entry): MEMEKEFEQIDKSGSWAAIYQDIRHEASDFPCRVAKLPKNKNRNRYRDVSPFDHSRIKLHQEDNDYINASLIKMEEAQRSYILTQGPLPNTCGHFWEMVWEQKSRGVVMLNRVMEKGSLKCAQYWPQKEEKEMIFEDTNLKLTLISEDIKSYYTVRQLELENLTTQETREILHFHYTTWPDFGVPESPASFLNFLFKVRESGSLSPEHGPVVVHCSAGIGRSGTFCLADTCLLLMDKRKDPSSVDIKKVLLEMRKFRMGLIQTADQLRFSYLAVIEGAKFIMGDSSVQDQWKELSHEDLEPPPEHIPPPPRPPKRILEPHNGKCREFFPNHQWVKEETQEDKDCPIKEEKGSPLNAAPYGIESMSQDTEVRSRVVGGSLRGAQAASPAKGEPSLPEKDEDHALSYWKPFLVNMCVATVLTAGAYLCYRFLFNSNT

[
  {
    "structure smiles string": "CC1(C)CC(NCc2ccc(-c3ccc(O)c(C(=O)O)c3)o2)CC(C)(C)N1[O]",
    "target entity": "Tyrosine-protein phosphatase non-receptor type 1 (Homo sapiens, UniProt P18031)",
    "IC50": "> 1000 µM"
  },
  {
    "structure smiles string": "CC1(C)CC(NC(=O)CCCC(=O)Nc2ccc(O)c(C(=O)O)c2)CC(C)(C)N1[O]",
    "target entity": "Tyrosine-protein phosphatase non-receptor type 1 (Homo sapiens, UniProt P18031)",
    "IC50": "> 1000 µM"
  },
  {
    "structure smiles string": "CC1(C)CC(NC(=O)/C=C/c2ccc(-c3ccc(O)c(C(=O)O)c3)o2)CC(C)(C)N1[O]",
    "target entity": "Tyrosine-protein phosphatase non-receptor type 1 (Homo sapiens, UniProt P18031)",
    "IC50": "24 µM"
  },
  {
    "structure smiles string": "COC(=O)c1cc(-c2ccc(CNC3CC(C)(C)N([O])C(C)(C)C3)o2)ccc1O",
    "target entity": "Tyrosine-protein phosphatase non-receptor type 1 (Homo sapiens, UniProt P18031)",
    "IC50": "> 1000 µM"
  },
  {
    "structure smiles string": "CC1(C)CC(NC(=O)/C=C/c2ccc(-c3ccc([N+](=O)[O-])cc3)o2)CC(C)(C)N1[O]",
    "target entity": "Tyrosine-protein phosphatase non-receptor type 1 (Homo sapiens, UniProt P18031)",
    "IC50": "> 1000 µM"
  },
  {
    "structure smiles string": "CC1(C)CC(NC(=O)/C=C/c2ccc(-c3cccc([N+](=O)[O-])c3)o2)CC(C)(C)N1[O]",
    "target entity": "Tyrosine-protein phosphatase non-receptor type 1 (Homo sapiens, UniProt P18031)",
    "IC50": "1000 µM"
  },
  {
    "structure smiles string": "COC(=O)c1cc(NC(=O)CCCC(=O)NC2CC(C)(C)N([O])C(C)(C)C2)ccc1O",
    "target entity": "Tyrosine-protein phosphatase non-receptor type 1 (Homo sapiens, UniProt P18031)",
    "IC50": "> 1000 µM"
  }
]

###

assay comment: Inhibition of Yersinia pestis YopH expressed in Escherichia coli
pIC50: −log10 of the molar value.
Tag: Yes if measured pIC50 is not below 4, No if it is.

[
  {
    "structure smiles string": "COC(=O)c1cc(NC(=O)CCCC(=O)NC2CC(C)(C)N([O])C(C)(C)C2)ccc1O",
    "classification": "No"
  },
  {
    "structure smiles string": "COC(=O)c1cc(-c2ccc(CNC3CC(C)(C)N([O])C(C)(C)C3)o2)ccc1O",
    "classification": "No"
  },
  {
    "structure smiles string": "CC1(C)CC(NC(=O)/C=C/c2ccc(-c3ccc([N+](=O)[O-])cc3)o2)CC(C)(C)N1[O]",
    "classification": "Yes"
  },
  {
    "structure smiles string": "CC1(C)CC(NC(=O)/C=C/c2ccc(-c3cccc([N+](=O)[O-])c3)o2)CC(C)(C)N1[O]",
    "classification": "Yes"
  },
  {
    "structure smiles string": "CC1(C)CC(NC(=O)/C=C/c2ccc(-c3ccc(O)c(C(=O)O)c3)o2)CC(C)(C)N1[O]",
    "classification": "Yes"
  },
  {
    "structure smiles string": "CC1(C)CC(NCc2ccc(-c3ccc(O)c(C(=O)O)c3)o2)CC(C)(C)N1[O]",
    "classification": "Yes"
  },
  {
    "structure smiles string": "CC1(C)CC(NC(=O)CCCC(=O)Nc2ccc(O)c(C(=O)O)c2)CC(C)(C)N1[O]",
    "classification": "No"
  }
]

###

target entity: Tyrosine-protein phosphatase non-receptor type 2 (Homo sapiens, UniProt P17706)
Sequence (P17706 whole entry): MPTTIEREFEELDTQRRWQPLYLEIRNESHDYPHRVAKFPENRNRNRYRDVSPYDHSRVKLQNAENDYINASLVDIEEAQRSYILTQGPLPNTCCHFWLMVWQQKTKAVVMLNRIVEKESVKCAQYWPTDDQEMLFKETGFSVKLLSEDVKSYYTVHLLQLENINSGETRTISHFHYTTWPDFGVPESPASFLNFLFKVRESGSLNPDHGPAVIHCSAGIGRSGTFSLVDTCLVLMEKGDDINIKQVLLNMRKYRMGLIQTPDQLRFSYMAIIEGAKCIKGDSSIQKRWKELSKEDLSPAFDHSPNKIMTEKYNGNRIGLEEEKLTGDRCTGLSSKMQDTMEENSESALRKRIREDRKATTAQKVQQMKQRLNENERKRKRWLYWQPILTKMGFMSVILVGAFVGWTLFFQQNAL
property: IC50 (µM)

[
  {
    "structure smiles string": "CC1(C)CC(NC(=O)CCCC(=O)Nc2ccc(O)c(C(=O)O)c2)CC(C)(C)N1[O]",
    "unit name": "µM",
    "censoring sign": ">",
    "observed": 1000
  },
  {
    "structure smiles string": "CC1(C)CC(NCc2ccc(-c3ccc(O)c(C(=O)O)c3)o2)CC(C)(C)N1[O]",
    "unit name": "µM",
    "censoring sign": "=",
    "observed": 685
  },
  {
    "structure smiles string": "CC1(C)CC(NC(=O)/C=C/c2ccc(-c3cccc([N+](=O)[O-])c3)o2)CC(C)(C)N1[O]",
    "unit name": "µM",
    "censoring sign": "=",
    "observed": 260
  },
  {
    "structure smiles string": "CC1(C)CC(NC(=O)/C=C/c2ccc(-c3ccc(O)c(C(=O)O)c3)o2)CC(C)(C)N1[O]",
    "unit name": "µM",
    "censoring sign": "=",
    "observed": 14
  },
  {
    "structure smiles string": "CC1(C)CC(NC(=O)/C=C/c2ccc(-c3ccc([N+](=O)[O-])cc3)o2)CC(C)(C)N1[O]",
    "unit name": "µM",
    "censoring sign": ">",
    "observed": 1000
  },
  {
    "structure smiles string": "COC(=O)c1cc(-c2ccc(CNC3CC(C)(C)N([O])C(C)(C)C3)o2)ccc1O",
    "unit name": "µM",
    "censoring sign": ">",
    "observed": 1000
  },
  {
    "structure smiles string": "COC(=O)c1cc(NC(=O)CCCC(=O)NC2CC(C)(C)N([O])C(C)(C)C2)ccc1O",
    "unit name": "µM",
    "censoring sign": ">",
    "observed": 1000
  }
]

Measured values drawn from ChEMBL document CHEMBL1147128 for this set.
